B1: IQUB (parent)
chain: EADYEDDSKIAFLMQLQDIQYLTE

variants of: B1; assay: protein stability index of a GFP-peptide fusion (GPS, HEK-293T) (PSI 1-6); higher = more stable; details: c terminus: a fixed tail appended;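 also: lentivirally expressed fusions sorted by FACS into six bins by GFP to DsRed ratio, PSI derived from sequencing read proportions per bin multiplied by bin number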
Quick list: protein stability index per entry.
QUANTITY KIND: protein stability index

# MUT, QUANTITY KIND, ENDPOINT RESULT
rows = [
    ("D3Y", "protein stability index", 1.83),
    ("Y4E", "protein stability index", 4.09),
    ("A11V", "protein stability index", 2.24),
    ("D7L", "protein stability index", 1.89),
    ("L13F", "protein stability index", 2.85),
    ("L13I", "protein stability index", 2.77),
    ("I10N", "protein stability index", 4.17),
    ("A11M", "protein stability index", 2.66),
    ("E24D", "protein stability index", 3.32),
    ("I10K", "protein stability index", 4.01),
    ("T23N", "protein stability index", 3.89),
    ("A11W", "protein stability index", 2.78),
    ("Y21M", "protein stability index", 3.45),
    ("Q20G", "protein stability index", 2.97),
    ("T23Y", "protein stability index", 2.21),
    ("D18Q", "protein stability index", 2.68),
    ("L22C", "protein stability index", 3.67),
    ("L22S", "protein stability index", 3.99),
    ("F12V", "protein stability index", 3.54),
    ("Q15W", "protein stability index", 1.78),
    ("K9W", "protein stability index", 2.61),
    ("Q20D", "protein stability index", 3.86),
    ("Y21A", "protein stability index", 3.81),
    ("E24R", "protein stability index", 2.07),
    ("D6R", "protein stability index", 2.09),
    ("T23H", "protein stability index", 3.29),
    ("T23W", "protein stability index", 1.97),
]
